Protein target, amino acids: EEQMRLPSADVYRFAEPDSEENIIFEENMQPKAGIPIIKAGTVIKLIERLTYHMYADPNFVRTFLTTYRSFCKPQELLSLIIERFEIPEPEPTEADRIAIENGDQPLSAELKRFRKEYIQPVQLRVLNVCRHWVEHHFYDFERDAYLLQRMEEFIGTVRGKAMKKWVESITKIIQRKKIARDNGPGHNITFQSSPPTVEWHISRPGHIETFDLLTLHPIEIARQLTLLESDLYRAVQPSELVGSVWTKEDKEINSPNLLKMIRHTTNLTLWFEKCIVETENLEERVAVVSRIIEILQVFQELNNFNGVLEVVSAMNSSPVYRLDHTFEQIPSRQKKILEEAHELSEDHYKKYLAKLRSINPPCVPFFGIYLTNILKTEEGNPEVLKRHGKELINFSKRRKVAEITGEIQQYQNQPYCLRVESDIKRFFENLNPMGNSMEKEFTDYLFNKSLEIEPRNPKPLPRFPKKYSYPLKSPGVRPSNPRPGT
Each item that follows carries a reported IC50.
assay readout: IC50

compound	experimental result
Cc1nc(N[C@H](C)c2cccc(C(F)(F)CO)c2F)c2cc(N3CC4(COC4)C3)c3c(c2n1)CCC3 [Compound 23]	1 to 30 nM
COCC1CN(c2cc3c(N[C@H](C)c4cc(N)cc(C(F)(F)F)c4)nc(C)nc3c3c2CCC3)C1 [Compound 26]	31 to 70 nM
Cc1nc(N[C@H](C)c2cc(N)cc(C(F)(F)F)c2)c2cc(N3CCC(C(C)(C)O)CC3)c3c(c2n1)CCC3 [Compound 51]	1 to 30 nM
Cc1nc(N[C@H](C)c2cc(N)cc(C(F)(F)F)c2)c2cc(-c3ccc(=O)n(C)c3)c3c(c2n1)CCC3 [Compound 87]	31 to 70 nM
Cc1nc(N[C@H](C)c2cccc(C(F)(F)C(C)O)c2F)c2cc(N3CC4(COC4)C3)c3c(c2n1)CCC3 (single isomer, unassigned) [Compound 73a]	1 to 30 nM
Cc1nc(N[C@H](C)c2cc(N)cc(C(F)(F)F)c2)c2cc(N3CCC(O)CC3)c3c(c2n1)CCC3 [Compound 48]	1 to 30 nM
Cc1nc(N[C@H](C)c2cc(N)cc(C(F)(F)F)c2)c2cc(N3CCNC(=O)C3)c3c(c2n1)CCC3 [Compound 53]	1 to 30 nM
